Target: UniProt P20292
Sequence (P20292 whole entry): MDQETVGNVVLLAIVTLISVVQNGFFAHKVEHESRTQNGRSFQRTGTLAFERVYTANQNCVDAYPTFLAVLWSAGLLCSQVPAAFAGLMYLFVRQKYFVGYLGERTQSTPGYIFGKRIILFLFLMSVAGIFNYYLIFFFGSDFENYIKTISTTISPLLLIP
Test: Inhibition of FLAP in human neutrophils assessed as suppression of A23187-stimulated 5-LO product formation using arachidonic acid as substrate measured as residual activity at 10 uM preincubated for 15 mins followed by A23187/arachidonic acid addition after 10 mins RP-HPLC/UV analysis relative to control
property_measured: Activity (%)

Here is how some compounds turned out for Activity.
INSERT INTO assay_data (compound, system_under_test, test_value) VALUES
  ('CC(C)Cc1ccc(C(C)c2nc3cc(OCc4ccc(C(F)(F)F)cc4)ccc3n2Cc2ccccc2C(F)(F)F)cc1 (stereo not given)', 'UniProt P20292', 94.3),
  ('COc1ccc(COc2ccc3c(c2)nc(C(C)c2ccc(CC(C)C)cc2)n3Cc2ccccc2C(F)(F)F)cc1 (stereo not given)', 'UniProt P20292', 80.1),
  ('CC(C)Cc1ccc(C(C)c2nc3cc(OCc4ccc(Br)cc4)ccc3n2Cc2ccccc2C(F)(F)F)cc1 (stereo not given)', 'UniProt P20292', 94.4),
  ('Cc1ccc(COc2ccc3c(c2)nc(C(C)c2ccc(CC(C)C)cc2)n3Cc2ccccc2C(F)(F)F)cc1 (stereo not given)', 'UniProt P20292', 90.5),
  ('CC(C)Cc1ccc(C(C)c2nc3cc(OCc4ccccc4Cl)ccc3n2Cc2ccccc2C(F)(F)F)cc1 (stereo not given)', 'UniProt P20292', 92.2),
  ('Cc1ccccc1COc1ccc2c(c1)nc(C(C)c1ccc(CC(C)C)cc1)n2Cc1ccccc1C(F)(F)F (stereo not given)', 'UniProt P20292', 89.7),
  ('CC(C)Cc1ccc(C(C)c2nc3cc(OCc4cccc(F)c4)ccc3n2Cc2ccccc2C(F)(F)F)cc1 (stereo not given)', 'UniProt P20292', 85.9);

A. CC(C)Cc1ccc(C(C)c2nc3cc(OCc4ccc(C(C)(C)C)cc4)ccc3n2Cc2ccccc2C(F)(F)F)cc1 (stereo not given)
B. C=CCOc1ccc2c(c1)nc(C(C)c1ccc(CC(C)C)cc1)n2Cc1ccccc1C(F)(F)F (stereo not given)
C. CC(C)Cc1ccc(C(C)c2nc3cc(OCc4ccccc4C#N)ccc3n2Cc2ccccc2Cl)cc1 (stereo not given)
Query block: Task field, ranking: reported Activity, descending order. Returns: the labels listed in the requested order.
Result block: A, C, B
